Provenance of the data: the NIST ThermoML archive (doi:10.1021/je900537y)

assay: molar heat capacity at constant pressure; conditions: 329.15 K; 101.33 kPa; Liquid; Small sample (50 mg) DSC
MEASURED ENDPOINT: molar heat capacity at constant pressure (J/K/mol)
One number for each entry, in J/K/mol.

Use these answered entries as a reference point.
Short answer for NCCCN [1,3-propanediamine] : molar heat capacity at constant pressure was 207.14

Short answer for NCCCCCCCCCN [1,9-diaminononane] : molar heat capacity at constant pressure was 401.17

Field: molar heat capacity at constant pressure. Fill in for each record below.
1. NCCCCN [1,4-butanediamine]
2. NCCCCCCCN [1,7-diaminoheptane]
3. NCCCCCCN [1,6-hexanediamine]
4. NCCN [ethane-1,2-diamine]

Result:
239.63
336.64
302.95
175.29

* * *

assay: molar heat capacity at constant pressure; conditions: 303.65 K; 101.33 kPa; Liquid; Small sample (50 mg) DSC
MEASURED ENDPOINT: molar heat capacity at constant pressure (J/K/mol)
One number for each entry, in J/K/mol.

Short answer for NCCCCN : molar heat capacity at constant pressure was 236.94

Short answer for NCCN : molar heat capacity at constant pressure was 173.06

Short answer for NCCCN : molar heat capacity at constant pressure was 204.19

---
Short answer for NCCCCCCCN : molar heat capacity at constant pressure was 332.93

* * *

assay: molar heat capacity at constant pressure; details: 344.15 K; 101.33 kPa; Liquid; Small sample (50 mg) DSC
MEASURED ENDPOINT: molar heat capacity at constant pressure (J/K/mol)
Numbers only, in J/K/mol.

Field: molar heat capacity at constant pressure. Fill in for each record below.
1. NCCCCCCN
2. NCCCN
3. NCCCCN
4. NCCCCCCCCCN
5. NCCCCCCCN
6. NCCN

Result:
1: 305.55; 2: 208.91; 3: 241.53; 4: 404.43; 5: 339.63; 6: 176.73

* * *

assay: molar heat capacity at constant pressure; conditions: 347.15 K; 101.33 kPa; Liquid; Small sample (50 mg) DSC
MEASURED ENDPOINT: molar heat capacity at constant pressure (J/K/mol)
Answers are plain numbers, in J/K/mol.

Short answer for NCCCN : molar heat capacity at constant pressure was 209.26

Field: molar heat capacity at constant pressure. Fill in for each record below.
1. NCCCCCCCCCN
2. NCCCCCCN
3. NCCCCN

Result:
1: 405.23; 2: 306.2; 3: 241.97

Field: molar heat capacity at constant pressure. Fill in for each record below.
1. NCCCCCCCN
2. NCCN

Result:
340.31
177.02

* * *

test: molar heat capacity at constant pressure; conditions: 336.65 K; 101.33 kPa; Liquid; Small sample (50 mg) DSC
Could you please report measured molar heat capacity at constant pressure for the items listed next?
Answers are plain numbers, in J/K/mol.

Use these answered entries as a reference point.
Short answer for NCCCCCCCN : molar heat capacity at constant pressure was 338.05

Short answer for NCCCCN : molar heat capacity at constant pressure was 240.52

Short answer for NCCN : molar heat capacity at constant pressure was 176.01

Short answer for NCCCCCCN : molar heat capacity at constant pressure was 304.13

Field: molar heat capacity at constant pressure. Fill in for each record below.
1. NCCCCCCCCCN
2. NCCCN

Result:
[402.64, 208.03]
